Where do the numbers come from? From PubChem BioAssay AID1159580.

Listed here: items and their measured normalized growth.
experiment: chemical genetic growth profiling, strain panel (AID 1159580);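 also: tested at 20 µM; growth read once vehicle control cultures reached saturation at 30 °C; 1 = growth at the plate median or of vehicle wells; lower values mean less growth of the strain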; settings: S. cerevisiae deletion strains, growth OD, locus YOR136W, strain idh2, hits give low values
The whole screen tested about 5,500 compounds, of which about 2,000 (36%) were called active. Another 18% or so got no clear call; they are omitted. The list shows a part of the results.

Compound	normalized growth
O=C(/C=C/C=C/c1ccc2c(c1)OCO2)N1CCCCC1	0.964
COc1ccc(C(=O)c2ccccc2)c(O)c1	0.912
C/C=C(/C(=C/C)c1ccc(O)cc1)c1ccc(O)cc1	0.938
COc1cc(O)c(C(=O)c2ccccc2)cc1O	0.977
CC(=C(CCOP(=O)(O)O)SC(=O)c1ccccc1)N(C=O)Cc1cnc(C)nc1N	1.02
COc1ccc(C2CC(=O)c3ccc(OC)cc3O2)cc1 (configuration not stated)	0.954
Oc1ccc(O)cc1	1.03
O=C(O)c1cc(=O)c2ccc(Cl)cc2[nH]1	0.987
CNc1ccccc1C(=O)N1CCc2c([nH]c3ccccc23)C1=O	0.974
Oc1c(Cl)c(Cl)c(Cl)c(Cl)c1Cl	0.828
O=C1C[C@@H](c2ccc(O)cc2)Oc2cc(O)cc(O)c21	1.02
COC(=O)C1[C@H]2C[C@H]3c4[nH]c5ccccc5c4CCN3C[C@@H]2CC[C@@H]1O (some centres not stated)	1.02

---

experiment: chemical genetic growth profiling, strain panel (AID 1159580);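 also: tested at 20 µM; growth read once vehicle control cultures reached saturation at 30 °C; 1 = growth at the plate median or of vehicle wells; lower values mean less growth of the strain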; details: S. cerevisiae deletion strains, growth OD, locus YMR277W, strain FCP1
About 2,000 (36%) of roughly 5,500 compounds were called active. Not shown: some 18% with an inconclusive outcome. Rule as the data show it: active = normalized growth mostly below about 0.91 (no sharp cut-off); inconclusive = no clear call, values can overlap the other calls; inactive = mostly above about 0.92. The list shows a part of the results.
Possible outcomes: active, inactive

Structure As Smiles	Class Assignment
NC(N)=Nc1nc(-c2cc(Cl)sc2Cl)cs1	inactive
Cc1cc(SCc2[nH]nc3oc(=O)cc(C)c23)c(Cl)cc1Cl	inactive
C/C(=N/NC(N)=S)c1ccc(Oc2c(Cl)cncc2Cl)cc1	inactive
C/C(=N/NC(N)=S)c1ccccn1	inactive
N#Cc1c(Cl)c(Cl)c(Cl)c(Cl)c1C#N	active
Cc1c(Cl)cccc1NC(=S)N1CCCN(c2ccc(C(F)(F)F)cc2[N+](=O)[O-])CC1	inactive
N#C/C(=N/Nc1ccccc1Cl)S(=O)(=O)c1ccc(Cl)cc1	inactive
O=C(Nc1cc(Cl)cc(Cl)c1)Nc1cc(-c2ccco2)[nH]n1	active
Cc1c(C(=O)N2CCCCC2)cc(-c2ccccc2)n1-c1ccccc1	inactive
N#C/C(=C\c1ccccc1Sc1ccc(Cl)cc1)S(=O)(=O)c1ccccn1	inactive
Cn1cncc1S(=O)(=O)/C(C#N)=C/c1ccccc1Sc1ccc(Cl)cc1	inactive
NCCCN=c1ccc2c3c1c(O)c1c(O)ccc(=O)c1c3[nH]n2CCNCCO	inactive
Cc1c(Cl)cccc1NC(=S)N1CCCN(c2nc3ccc(Cl)cc3s2)CC1	inactive
O=[N+]([O-])c1cc(C(F)(F)F)ccc1-n1ccc(-c2cccs2)n1	inactive
O=C(NCc1ccco1)c1ccc(Oc2cc(Cl)cc(Cl)c2)o1	inactive

---

Listed here: items and their measured normalized growth.
experiment: chemical genetic growth profiling, strain panel (AID 1159580);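 also: tested at 20 µM; growth read once vehicle control cultures reached saturation at 30 °C; 1 = growth at the plate median or of vehicle wells; lower values mean less growth of the strain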; details: S. cerevisiae deletion strains, growth OD, locus YHR013C, strain ard1, hits give low values
Among all 5,500 compounds or so, about 2,000 (36%) were called active. Roughly 18% stayed inconclusive and do not appear here. The list shows a part of the results.

Compound	normalized growth
O=C1CC(c2ccc(O)c(O)c2)Oc2cc(O)cc(O)c21 (stereo not given)	0.974
COc1ccc(C2CC(=O)c3ccc(OC)cc3O2)cc1 (stereo not given)	0.866
C[C@@H]1O[C@@H](O[C@H]2[C@@H](Oc3cc(O)c4c(c3)O[C@H](c3ccc(O)cc3)CC4=O)O[C@H](CO)[C@@H](O)[C@@H]2O)[C@H](O)[C@H](O)[C@H]1O	0.943
O=C1C[C@@H](c2ccc(O)cc2)Oc2cc(O)cc(O)c21	0.933
NC/C=C/C(=O)O	0.999
O=[N+]([O-])O[C@H]1CO[C@H]2[C@@H]1OC[C@H]2O[N+](=O)[O-]	0.971
COc1ccc([C@@H]2CC(=O)c3c(O)cc(O)cc3O2)cc1O	0.955
COc1c(O)cc2oc3cc(O)c(CC=C(C)C)c(O)c3c(=O)c2c1CC=C(C)C	0.985
O=C(O)c1ccccc1OP(=O)(O)O	0.997
CC1(C)C2CC[C@]3(C)C(C(=O)C=C4[C@@H]5C[C@@](C)(C(=O)O)CC[C@]5(C)CC[C@]43C)[C@@]2(C)CC[C@@H]1O (stereo not given in full)	1.1
